// data source = the supplement of paper PMC10567573

B1: PRKX (parent)
chain: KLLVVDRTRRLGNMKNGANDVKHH

Variants of: B1
Test: protein stability index of a GFP-peptide fusion (GPS, HEK-293T) (PSI 1-6); higher = more stable;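 also: lentivirally expressed fusions sorted by FACS into six bins by GFP to DsRed ratio, PSI derived from sequencing read proportions per bin multiplied by bin number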
Conditions: c terminus: a fixed tail appended
Please respond with reported protein stability index for every item in the list.
Kindly provide the number alone.

Dear colleague, please send me the reported protein stability index for N19H when you can.
2.75

Dear colleague, please send me the reported protein stability index for K15P when you can.
2.9

Dear colleague, please send me the reported protein stability index for H24A when you can.
3.61

Dear colleague, please send me the reported protein stability index for V5E when you can.
4.08

Dear colleague, please send me the reported protein stability index for V5C when you can.
3.72

Dear colleague, please send me the reported protein stability index for A18K when you can.
3.21

Dear colleague, please send me the reported protein stability index for N19C when you can.
2.66

Dear colleague, please send me the reported protein stability index for M14S when you can.
3.37

Dear colleague, please send me the reported protein stability index for R10N when you can.
3.4

Dear colleague, please send me the reported protein stability index for G17D when you can.
3.5

Dear colleague, please send me the reported protein stability index for R7G when you can.
3.22

Dear colleague, please send me the reported protein stability index for R7E when you can.
3.7

Dear colleague, please send me the reported protein stability index for H23E when you can.
3.44

Dear colleague, please send me the reported protein stability index for G12P when you can.
3.19

Dear colleague, please send me the reported protein stability index for K15N when you can.
2.95

Dear colleague, please send me the reported protein stability index for V5K when you can.
3.56

Dear colleague, please send me the reported protein stability index for G17M when you can.
2.63

Dear colleague, please send me the reported protein stability index for K15Q when you can.
3.5

Dear colleague, please send me the reported protein stability index for H23I when you can.
2.67

Dear colleague, please send me the reported protein stability index for R10C when you can.
2.61

Dear colleague, please send me the reported protein stability index for T8E when you can.
3.38

Dear colleague, please send me the reported protein stability index for D20P when you can.
2.75

Dear colleague, please send me the reported protein stability index for R9T when you can.
3.21

Dear colleague, please send me the reported protein stability index for G17P when you can.
2.63

Dear colleague, please send me the reported protein stability index for N19Y when you can.
2.08

Dear colleague, please send me the reported protein stability index for L2S when you can.
4.13

Dear colleague, please send me the reported protein stability index for L2Q when you can.
4.39

Dear colleague, please send me the reported protein stability index for D20T when you can.
2.65

Dear colleague, please send me the reported protein stability index for K1T when you can.
3.45

Dear colleague, please send me the reported protein stability index for K22M when you can.
2.51

Dear colleague, please send me the reported protein stability index for D6L when you can.
1.98

Dear colleague, please send me the reported protein stability index for R9D when you can.
3.4

Dear colleague, please send me the reported protein stability index for V5D when you can.
4.07

Dear colleague, please send me the reported protein stability index for G12L when you can.
2.83

Dear colleague, please send me the reported protein stability index for K15F when you can.
2.85

Dear colleague, please send me the reported protein stability index for G12C when you can.
2.84

Dear colleague, please send me the reported protein stability index for D6V when you can.
2.26

Dear colleague, please send me the reported protein stability index for A18P when you can.
2.87

Dear colleague, please send me the reported protein stability index for T8Q when you can.
3.08

Dear colleague, please send me the reported protein stability index for K22Q when you can.
3.27
